details: in ethyl acetate, 288.15 K
metricName: solubility (mole fraction)
Give your answer as a number; write no unit.

q: // solubility (mole fraction) lookup, key: `O=C1OC(=O)[C@H]2[C@@H]1[C@@H]1C=C[C@H]2O1`
a: 0.02

---

settings: in 1,4-dioxane, 298.15 K
metricName: solubility (mole fraction)
Give your answer as a number; write no unit.

q: // solubility (mole fraction) lookup, key: `O=C1OC(=O)[C@H]2[C@@H]1[C@@H]1C=C[C@H]2O1`
a: 0.0342

---

settings: in acetone, 278.15 K
metricName: solubility (mole fraction)
Give your answer as a number; write no unit.

q: // solubility (mole fraction) lookup, key: `O=C1OC(=O)[C@H]2[C@@H]1[C@@H]1C=C[C@H]2O1`
a: 0.0386
